# Test system: Trypanosoma brucei brucei
# test-protocol: Antimicrobial activity against bloodstream forms of Trypanosoma brucei brucei assessed as reduction in cell viability after 3 days by alamar blue assay
# Type: functional, organism-based
# recorded-conditions: 72 h
The entries below come with measured IC50 values attached.

- smiles-notation: "Cc1ccc(N2CCN(C(=O)Cn3cnc([N+](=O)[O-])n3)CC2)cc1"
  IC50: "> 30 µM"
- smiles-notation: "O=C(Cn1cnc([N+](=O)[O-])n1)N1CCN(c2ncccn2)CC1"
  IC50: "> 30 µM"
- smiles-notation: "O=C(Cn1cnc([N+](=O)[O-])n1)N1CCN(c2ccc(Cl)cc2)CC1"
  IC50: "> 30 µM"

====

# System: Trypanosoma cruzi
# test-protocol: Activity of histidine tagged recombinant Trypanosoma cruzi type 1 nitroreductase assessed as NADH oxidation at 100 uM by spectrophotometry method
The entries below come with measured Activity values attached.

- smiles-notation: "O=C(Cn1cnc([N+](=O)[O-])n1)N1CCN(c2ccc(C(F)(F)F)cc2)CC1"
  value-unit: "nmol/min/mg"
  Activity: 707
- smiles-notation: "O=C(Cn1cnc([N+](=O)[O-])n1)N1CCN(Cc2ccc(C(F)(F)F)cc2)CC1"
  value-unit: "nmol/min/mg"
  Activity: 701
- smiles-notation: "O=C(Cn1ccnc1[N+](=O)[O-])NCc1ccccc1"
  value-unit: "nmol/min/mg"
  Activity: 680
